Provide the reported pKd of each item.
- target.under.test: T1, EsCas13d, nuclease-dead (Eubacterium siraeum, UniProt B0MS50, R295A;H300A;R849A;H854A)
- T1 sequence: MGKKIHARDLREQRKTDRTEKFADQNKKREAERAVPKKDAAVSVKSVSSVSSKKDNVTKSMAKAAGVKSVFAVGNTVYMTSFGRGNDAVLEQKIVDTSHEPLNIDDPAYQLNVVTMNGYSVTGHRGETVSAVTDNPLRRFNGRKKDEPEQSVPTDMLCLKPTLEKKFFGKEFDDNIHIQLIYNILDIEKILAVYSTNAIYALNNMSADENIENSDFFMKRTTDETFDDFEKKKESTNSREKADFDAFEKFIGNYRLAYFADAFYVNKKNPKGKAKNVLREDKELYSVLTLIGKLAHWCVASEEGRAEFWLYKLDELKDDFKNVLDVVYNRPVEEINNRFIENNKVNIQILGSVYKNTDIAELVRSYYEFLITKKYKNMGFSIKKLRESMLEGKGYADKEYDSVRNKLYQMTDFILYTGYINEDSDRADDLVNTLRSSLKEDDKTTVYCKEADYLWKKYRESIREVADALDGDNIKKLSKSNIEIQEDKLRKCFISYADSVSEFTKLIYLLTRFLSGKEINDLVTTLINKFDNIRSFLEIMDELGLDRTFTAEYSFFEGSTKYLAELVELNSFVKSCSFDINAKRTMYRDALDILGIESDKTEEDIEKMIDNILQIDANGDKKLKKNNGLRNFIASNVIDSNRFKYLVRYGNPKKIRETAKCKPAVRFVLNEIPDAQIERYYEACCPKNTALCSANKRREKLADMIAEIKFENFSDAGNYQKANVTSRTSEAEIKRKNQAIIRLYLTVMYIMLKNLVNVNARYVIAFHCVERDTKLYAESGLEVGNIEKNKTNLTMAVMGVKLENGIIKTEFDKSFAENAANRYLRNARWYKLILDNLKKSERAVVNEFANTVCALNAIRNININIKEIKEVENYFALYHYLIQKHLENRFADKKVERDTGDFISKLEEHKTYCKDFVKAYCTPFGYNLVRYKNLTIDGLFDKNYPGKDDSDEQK
- procedure.summary: crRNA (strand 1, pre-loaded); Mg2+; 40 mM Tris-HCl pH 7.5, 150 mM NaCl, 6 mM MgCl2, 1 mM DTT, 0.1% Tween-20, 0.2 mg/ml BSA; 25 C; 10 min per concentration, then washed
- applied.conditions: tags: His6-TwinStrep-SUMO cleaved; N-terminal SNAP kept (SNAP-Surface 488); label: 3' end held by stalled T7 RNA polymerase
# pKd is unitless: minus log10 of the molar concentration; print number only

Prompt line: So what does the record say about pKd for target 3 C16U,U22A (mixed) RNA 1: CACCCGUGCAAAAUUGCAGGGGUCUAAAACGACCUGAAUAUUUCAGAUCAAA RNA 2: GGGAAUGGAUCCACAUCUACGAAUUCGUUAUUGAUUUGAAAUAUUCAGGUCUGCAGAUCGGAAGAGCACACGU ?
Response line: 7.15

Prompt line: How about target 1 C6A,C7A (mixed) RNA 1: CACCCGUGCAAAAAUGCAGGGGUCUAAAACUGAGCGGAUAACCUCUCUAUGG RNA 2: GGGAAUGGAUCCACAUCUACGAAUUCGUACCAUAGAGAGGUUAUAAGCUCACCGAGAUCGGAAGAGCACACGU ?
Response line: 8.13

Prompt line: How about target 2 MT 5'PFS UUG 3'PFS CAU (mixed) RNA 1: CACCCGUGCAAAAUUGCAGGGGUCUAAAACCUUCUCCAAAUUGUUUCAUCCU RNA 2: GGGAAUGGAUCCACAUCUACGAAUUCUUGAGGAUGAAACAAUUUGGAGAAGCAUAGAUCGGAAGAGCACACGU ?
Response line: 8.04

Prompt line: How about target 2 MT 5'PFS CUU 3'PFS AAG (mixed) RNA 1: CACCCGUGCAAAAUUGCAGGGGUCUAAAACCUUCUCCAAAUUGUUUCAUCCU RNA 2: GGGAAUGGAUCCACAUCUACGAAUUCCUUAGGAUGAAACAAUUUGGAGAAGAAGAGAUCGGAAGAGCACACGU ?
Response line: 8.39

Hey, just so you know, these numbers are from paper PMC10786891.
